- system_tested: T1, monkey CTLA-4, full length, on transfected HEK293 cells (monkey)
- T1 construct: whole, on cells; also called cCTLA-4; HEK293-cCTLA-4
- test_protocol: FACS, 293F-cCTLA-4 cells
property: MFI at 0.32 nM
Would you mind answering with just the numeric figure?

Sample answers from the record:
binder | property | reading
40C4C6 (chimeric antibody purified from hybridoma supernatant) (antibody, V domains shown, also called mAb09; mAb009) VH: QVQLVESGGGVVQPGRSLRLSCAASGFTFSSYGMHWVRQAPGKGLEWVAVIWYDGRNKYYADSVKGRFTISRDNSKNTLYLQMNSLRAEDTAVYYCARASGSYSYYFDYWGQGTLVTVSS VL: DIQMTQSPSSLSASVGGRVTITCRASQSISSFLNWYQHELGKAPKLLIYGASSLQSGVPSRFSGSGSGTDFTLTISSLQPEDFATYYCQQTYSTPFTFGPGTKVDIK | MFI at 0.32 nM | 219
92C8B6 (chimeric antibody purified from hybridoma supernatant) (antibody, V domains shown, also called mAb42; mAb042) VH: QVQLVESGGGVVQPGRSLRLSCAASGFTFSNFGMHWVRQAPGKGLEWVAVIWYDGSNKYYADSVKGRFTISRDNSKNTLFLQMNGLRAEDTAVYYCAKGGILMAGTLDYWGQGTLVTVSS VL: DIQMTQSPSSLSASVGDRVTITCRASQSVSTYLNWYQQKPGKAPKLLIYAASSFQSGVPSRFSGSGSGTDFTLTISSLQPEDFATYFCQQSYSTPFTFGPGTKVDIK | MFI at 0.32 nM | 208
31C12F3 (chimeric antibody purified from hybridoma supernatant) (antibody, V domains shown, also called mAb010) VH: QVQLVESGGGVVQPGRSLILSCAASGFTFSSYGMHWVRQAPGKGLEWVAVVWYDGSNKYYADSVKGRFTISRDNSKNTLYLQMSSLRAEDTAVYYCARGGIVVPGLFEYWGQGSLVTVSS VL: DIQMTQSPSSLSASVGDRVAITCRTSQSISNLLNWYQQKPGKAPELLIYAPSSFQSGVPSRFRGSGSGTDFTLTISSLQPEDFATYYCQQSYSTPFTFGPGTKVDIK | MFI at 0.32 nM | 261

Q: Report measured MFI at 0.32 nM; entry is 97A8D1 (chimeric antibody purified from hybridoma supernatant) (antibody, V domains shown, also called mAb49; mAb049) VH: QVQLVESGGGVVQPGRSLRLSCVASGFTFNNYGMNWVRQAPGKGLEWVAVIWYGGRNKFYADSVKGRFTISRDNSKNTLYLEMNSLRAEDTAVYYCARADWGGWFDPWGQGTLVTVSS VL: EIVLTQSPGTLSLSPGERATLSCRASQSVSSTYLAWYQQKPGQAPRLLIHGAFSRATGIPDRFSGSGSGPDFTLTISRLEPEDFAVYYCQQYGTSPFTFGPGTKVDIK
Ans: 225
